Test: Metabolic stability in rat liver microsomes assessed as parent compound remaining measured after 30 mins in presence of NADPH by LC-MS/MS analysis
Assay type: ADME, Microsome
Settings: read-out: Stability
Outcome measure: remaining at 0.5 h (%)

Sample CCC/C=C/C(O)C(F)(F)C(=O)C12CC3CC(CC(C3)C1)C2 (centres undefined) ; remaining at 0.5 h observed: 63

Sample O=C(c1ccc2ccccc2c1)C(F)(F)C(Nc1ccccc1)c1ccccc1 (centres undefined) ; remaining at 0.5 h observed: 1

Sample O=C(c1ccc2c(c1)OCO2)C(F)(F)C(O)c1ccc(Cl)cc1 (centres undefined) ; remaining at 0.5 h observed: 11.5

Sample CC(=O)c1ccc(C(O)C(F)(F)C(=O)C23CC4CC(CC(C4)C2)C3)cc1 (centres undefined) ; remaining at 0.5 h observed: 70.5

Sample COc1ccc(C(Nc2ccc(F)cc2)C(F)(F)C(=O)c2ccc3ccccc3c2)cc1 (centres undefined) ; remaining at 0.5 h observed: 2

Sample O=C(c1ccc2c(c1)OCO2)C(F)(F)C(O)c1ccccc1 (centres undefined) ; remaining at 0.5 h observed: 53

Sample CC(C)(C)OC(=O)NC(c1cccc(Br)c1)C(F)(F)C(=O)c1ccc2ccccc2c1 (centres undefined) ; remaining at 0.5 h observed: 55

Sample CC(C)(C)OC(=O)NC(c1ccc(Cl)cc1)C(F)(F)C(=O)c1ccc2ccccc2c1 (centres undefined) ; remaining at 0.5 h observed: 7.5

(1) O=C(c1ccc2ccccc2c1)C(F)(F)C(O)/C=C/c1ccccc1 (centres undefined)
(2) COc1ccc(NC(c2ccc(OC)cc2)C(F)(F)C(=O)c2ccc3ccccc3c2)cc1 (centres undefined)
(3) C/C=C/C=C/C(NCc1ccccc1)C(F)(F)C(=O)c1ccc2ccccc2c1 (centres undefined)
(4) CC(C)(C)OC(=O)NC(c1ccccc1)C(F)(F)C(=O)c1ccc2ccccc2c1 (centres undefined)
query: List the 4 entries from lowest remaining at 0.5 h to highest remaining at 0.5 h value. # the answer lists labels in the order requested
result: 3, 4, 2, 1

====

Experiment: Metabolic stability in rat liver microsomes assessed as parent compound remaining measured after 30 mins in presence of NADPH by LC-MS/MS analysis
Format: ADME, Microsome
Settings: read-out: Stability
Outcome measure: remaining at 0.5 h (%)

Reference set (6 entries):
Sample O=C(c1ccc(Cl)cc1)C(F)(F)C(O)c1ccccc1 (stereo not given) ; remaining at 0.5 h observed: 98.5

Sample COc1ccc(C(NC(=O)OC(C)(C)C)C(F)(F)C(=O)c2ccc3ccccc3c2)cc1 (stereo not given) ; remaining at 0.5 h observed: 10

Sample COc1ccc(C(O)C(F)(F)C(=O)C23CC4CC(CC(C4)C2)C3)cc1 (stereo not given) ; remaining at 0.5 h observed: 85.5

Sample CC(C)(C)OC(=O)NC(c1ccc(C(F)(F)F)cc1)C(F)(F)C(=O)c1ccc2ccccc2c1 (stereo not given) ; remaining at 0.5 h observed: 27

Sample O=C(c1ccc2ccccc2c1)C(F)(F)CO ; remaining at 0.5 h observed: 41.5

Sample CC(C)(C)OC(=O)NC(c1ccc(Cl)cc1)C(F)(F)C(=O)c1ccc2c(c1)OCO2 (stereo not given) ; remaining at 0.5 h observed: 83

(a) CC(C)(C)OC(=O)NC(c1ccc(Cl)cc1)C(F)(F)C(=O)c1ccc(Cl)cc1 (stereo not given)
(b) COc1cc2c(cc1OC)C(C(F)(F)C(=O)c1ccc(C(F)(F)F)cc1)NCC2 (stereo not given)
query: Given the two records a and b , choose the one whose remaining at 0.5 h value is lower. # reply format: chosen label
result: a

(1) O=C(c1ccc(Cl)cc1)C(F)(F)C(NCc1ccccc1)c1ccccc1 (stereo not given)
(2) CC(C)(C)OC(=O)NC(c1cccc(F)c1)C(F)(F)C(=O)c1ccc2ccccc2c1 (stereo not given)
query: Thinking about recorded remaining at 0.5 h values, which is higher, 1 or 2 ? # reply format: chosen label
result: 2

// provenance: ChEMBL document CHEMBL6074638
